Values were extracted from patent US20140147444A1.

# target of assay: T1, human OPGbp [143-317] (human, UniProt O14788 143-317)
# T1 construct: also called OPGL
# T1 sequence (looked up): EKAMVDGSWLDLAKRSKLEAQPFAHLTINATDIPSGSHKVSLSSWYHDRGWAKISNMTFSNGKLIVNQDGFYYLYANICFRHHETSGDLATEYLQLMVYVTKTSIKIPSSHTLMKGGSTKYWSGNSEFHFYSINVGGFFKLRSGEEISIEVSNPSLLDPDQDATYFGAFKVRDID
# protocol summary: SPR (BIAcore), immobilized OPGbp [143-317]
Exercise: state measured kon for each of the binders provided.
Give bare numbers, in M⁻¹ s⁻¹.

Examples with answers:
Summary for this binder, “AT” antibody variant N98W (heavy chain CDR3) (antibody, name in Kabat numbering, V domains shown, not shown: human IgG1 CH1, hinge, CH2 and CH3) VH: QVQLVQSGAEVRKPGASVKVSCKASGYDFSNYAIHWVRQAPGQRLEWMGWINAGNGNTKFSQKFQGRITVTRDTAASTAYMELRSLRSEDTAVYYCARDSSWMVRGIIIAYYFDYWGQGTLVTVSS VL: EIVMTQSPSSLSASVGDRVTITCRASQSISRYLNWYQLKPGKAPRLLIYGASSLQSGVPSRFSGSGSGAEFTLTISSLQPEDIATYYCQHTRAFGQGTKVEIKR : kon is 2.62e+06

Summary for this binder, “AT” antibody variant N98E (heavy chain CDR3) (antibody, name in Kabat numbering, V domains shown, not shown: human IgG1 CH1, hinge, CH2 and CH3) VH: QVQLVQSGAEVRKPGASVKVSCKASGYDFSNYAIHWVRQAPGQRLEWMGWINAGNGNTKFSQKFQGRITVTRDTAASTAYMELRSLRSEDTAVYYCARDSSEMVRGIIIAYYFDYWGQGTLVTVSS VL: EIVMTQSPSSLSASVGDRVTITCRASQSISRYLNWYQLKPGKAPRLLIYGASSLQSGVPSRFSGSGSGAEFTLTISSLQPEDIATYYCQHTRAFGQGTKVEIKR : kon is 2.72e+06

Summary for this binder, “AT” antibody variant N98I (heavy chain CDR3) (antibody, name in Kabat numbering, V domains shown, not shown: human IgG1 CH1, hinge, CH2 and CH3) VH: QVQLVQSGAEVRKPGASVKVSCKASGYDFSNYAIHWVRQAPGQRLEWMGWINAGNGNTKFSQKFQGRITVTRDTAASTAYMELRSLRSEDTAVYYCARDSSIMVRGIIIAYYFDYWGQGTLVTVSS VL: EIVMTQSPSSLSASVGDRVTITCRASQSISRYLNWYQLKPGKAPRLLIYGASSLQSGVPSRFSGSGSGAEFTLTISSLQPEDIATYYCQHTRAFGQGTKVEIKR : kon is 568000

Summary for this binder, “AT” antibody variant N98Y (heavy chain CDR3) (antibody, name in Kabat numbering, V domains shown, not shown: human IgG1 CH1, hinge, CH2 and CH3) VH: QVQLVQSGAEVRKPGASVKVSCKASGYDFSNYAIHWVRQAPGQRLEWMGWINAGNGNTKFSQKFQGRITVTRDTAASTAYMELRSLRSEDTAVYYCARDSSYMVRGIIIAYYFDYWGQGTLVTVSS VL: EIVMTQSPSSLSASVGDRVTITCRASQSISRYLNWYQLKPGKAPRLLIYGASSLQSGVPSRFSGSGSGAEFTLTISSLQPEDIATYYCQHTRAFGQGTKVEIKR : kon is 272000

Summary for this binder, “AT” antibody variant N98H (heavy chain CDR3) (antibody, name in Kabat numbering, V domains shown, not shown: human IgG1 CH1, hinge, CH2 and CH3) VH: QVQLVQSGAEVRKPGASVKVSCKASGYDFSNYAIHWVRQAPGQRLEWMGWINAGNGNTKFSQKFQGRITVTRDTAASTAYMELRSLRSEDTAVYYCARDSSHMVRGIIIAYYFDYWGQGTLVTVSS VL: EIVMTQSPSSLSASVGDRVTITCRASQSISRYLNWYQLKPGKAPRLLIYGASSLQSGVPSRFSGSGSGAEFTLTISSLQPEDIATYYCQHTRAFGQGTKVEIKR : kon is 2.2e+06

Summary for this binder, “AT” antibody variant N98P (heavy chain CDR3) (antibody, name in Kabat numbering, V domains shown, not shown: human IgG1 CH1, hinge, CH2 and CH3) VH: QVQLVQSGAEVRKPGASVKVSCKASGYDFSNYAIHWVRQAPGQRLEWMGWINAGNGNTKFSQKFQGRITVTRDTAASTAYMELRSLRSEDTAVYYCARDSSPMVRGIIIAYYFDYWGQGTLVTVSS VL: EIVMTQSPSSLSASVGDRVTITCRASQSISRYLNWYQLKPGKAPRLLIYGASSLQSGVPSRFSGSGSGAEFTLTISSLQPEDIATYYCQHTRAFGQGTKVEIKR : kon is 1.51e+06

More entries:
Summary for this binder, “AT” antibody variant N98M (heavy chain CDR3) (antibody, name in Kabat numbering, V domains shown, not shown: human IgG1 CH1, hinge, CH2 and CH3) VH: QVQLVQSGAEVRKPGASVKVSCKASGYDFSNYAIHWVRQAPGQRLEWMGWINAGNGNTKFSQKFQGRITVTRDTAASTAYMELRSLRSEDTAVYYCARDSSMMVRGIIIAYYFDYWGQGTLVTVSS VL: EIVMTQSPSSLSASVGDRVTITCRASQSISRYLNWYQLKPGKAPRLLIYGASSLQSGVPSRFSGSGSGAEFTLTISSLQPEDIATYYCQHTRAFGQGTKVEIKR : kon is 2.96e+06
